Entry source: PubChem BioAssay (NCATS)

System: PC15
EXPERIMENT: qHTS profiling for inhibitors of Plasmodium falciparum proliferation (AID 504749); note: nearly all actives have a fitted effect of over 60% in size
CONDITIONS_USED: P. falciparum in erythrocytes, SYBR Green DNA, 72 h; series mostly up to 28.7 µM
Method: NIH National Institute of Allergy and Infectious Diseases [NIAID] NIH Chemical Genomics Center [NCGC] […] Because mature erythrocytes lack DNA, only Plasmodium-derived DNA is detected. NCGC Assay Protocol Summary: The SYBR Green viability assay was adapted from a method described previously (Plouffe et al., 2008). […] The following morning, fluorescence intensity at 485(14) nm excitation and 535(25) nm emission wavelengths was measured on an EnVision (Perkin Elmer) plate reader. […]
Inconclusive results are not listed. Active and inactive are the calls of the source. Calls come from the whole dose curve; as a rule, active = well fitted inhibition curve with a large enough effect; inconclusive = small, poorly fitted or top-dose-only effect; inactive = flat fitted curve, though single readings scatter.
Your answer must be one of the following: yes for active, no for inactive

## Task Which result was noted for this compound in the test: CC(C)(C)CC(C)(C)c1ccc(O)c(Cc2ccc(Cl)cc2Cl)c1
## Result yes

## Task Which result was noted for this compound in the test: CC(C)COC(=O)OCN1C(=O)CN(CCN2CC(=O)N(COC(=O)OCC(C)C)C(=O)C2)CC1=O
## Result no

## Task Which result was noted for this compound in the test: CC(=O)c1ccc2c(c1)N(CCCN1CCC(CCO)CC1)c1ccccc1S2
## Result no

## Task Which result was noted for this compound in the test: CC(C)COC(=O)c1ccc(N)cc1
## Result no

## Task Which result was noted for this compound in the test: COc1cccc2c1C(=O)c1c(O)c3c(c(O)c1C2=O)C[C@@](O)(C(C)=O)C[C@@H]3O[C@H]1C[C@H](N)[C@H](O)[C@H](C)O1
## Result yes

====

Tested on: astro
EXPERIMENT: Drug repurposing screens with cells derived from glioblastoma tumor samples (AID 1345199); note: nearly all actives have a fitted effect of over 40% in size
CONDITIONS_USED: viability, ATP luminescence, 48 h; series mostly up to 45.9 µM
Inconclusive results are not listed. Activity calls are given as the source filed them. Calls follow the shape of the dose curve; as a rule, active = well fitted inhibition curve with a large enough effect; inconclusive = small, poorly fitted or top-dose-only effect; inactive = flat fitted curve, though single readings scatter.
Your answer must be one of the following: yes (1) = active, no (0) = inactive

## Task Which result was noted for this molecule in the test: OC(CCN1CCCCC1)(c1ccccc1)c1ccccc1
## Result no (0)

## Task Which result was noted for this molecule in the test: CC(C)=CCC1C(=O)N(c2ccccc2)N(c2ccccc2)C1=O
## Result no (0)

## Task Which result was noted for this molecule in the test: C[C@@H]1C(=O)NC2=Nc3cccc(Cl)c3CN21
## Result no (0)

## Task Which result was noted for this molecule in the test: Cc1cc(N)c2cc(NC(=O)Nc3ccc4nc(C)cc(N)c4c3)ccc2n1
## Result yes (1)

## Task Which result was noted for this molecule in the test: CCN1CCCC1=O
## Result no (0)

## Task Which result was noted for this molecule in the test: OC[C@H]1O[C@@H](n2cnc3c(=S)nc[nH]c32)[C@H](O)[C@@H]1O
## Result no (0)

## Task Which result was noted for this molecule in the test: CC1(C)CCC(NC(=O)[C@@H](N)CCC(=O)O)CC1
## Result no (0)

## Task Which result was noted for this molecule in the test: CO/N=C1\CN(c2nc3c(cc2F)c(=O)c(C(=O)O)cn3C2CC2)CC1CN (configuration not stated)
## Result no (0)

## Task Which result was noted for this molecule in the test: NCCc1ccn[nH]1
## Result no (0)

## Task Which result was noted for this molecule in the test: Cc1cc(O)c(C(C)C)cc1Cl
## Result no (0)

## Task Which result was noted for this molecule in the test: CN(C)CCCOc1nn(Cc2ccccc2)c2ccccc12
## Result no (0)

## Task Which result was noted for this molecule in the test: CC(C)(C(=O)c1cccnc1)c1cccnc1
## Result no (0)

## Task Which result was noted for this molecule in the test: CC[C@H](C)C(=O)O[C@H]1CCC=C2C=C[C@H](C)[C@H](CC[C@@H]3C[C@@H](O)CC(=O)O3)[C@H]21
## Result yes (1)

## Task Which result was noted for this molecule in the test: CC(=O)Nc1c(I)cc(I)c(C(=O)O)c1I
## Result no (0)

## Task Which result was noted for this molecule in the test: CC(=O)O[C@]1(C(C)=O)CC[C@H]2[C@@H]3C[C@H](C)C4=CC(=O)CC[C@]4(C)[C@H]3CC[C@@]21C
## Result no (0)

## Task Which result was noted for this molecule in the test: NC(=O)c1cc[n+](CC2=C(C(=O)[O-])N3C(=O)[C@@H](NC(=O)Cc4cccs4)[C@H]3SC2)cc1
## Result no (0)

## Task Which result was noted for this molecule in the test: CCCC1O[C@@H]2C[C@H]3[C@@H]4CCC5=CC(=O)C=C[C@]5(C)[C@H]4[C@@H](O)C[C@]3(C)[C@]2(C(=O)CO)O1 (some centres not stated)
## Result no (0)

## Task Which result was noted for this molecule in the test: COc1ccc(C2C(=O)c3ccccc3C2=O)cc1
## Result no (0)

## Task Which result was noted for this molecule in the test: Cc1c(N(C)CS(=O)(=O)O)c(=O)n(-c2ccccc2)n1C
## Result no (0)

## Task Which result was noted for this molecule in the test: C[C@]12C=CC(=O)C=C1CC[C@@H]1[C@@H]2[C@@H](O)C[C@@]2(C)[C@H]1CC[C@]2(O)C(=O)CO
## Result no (0)

## Task Which result was noted for this molecule in the test: CN(C)CCOc1ccccc1Cc1ccccc1
## Result no (0)

## Task Which result was noted for this molecule in the test: CC(=O)OCC(=O)NCCCOc1cccc(CN2CCCCC2)c1
## Result no (0)
